test system: RIPK1
assay-readout: Kd (nM)
Quick reminder: number only, in nM, skip the unit.

Req: Recall the recorded Kd for Nc1ncnc2occ(-c3ccc4c(c3)CCN4C(=O)Cc3cc(F)ccc3F)c12 [GSK2645446] with RIPK1 and state it.
Resp: 410

###

system: ASK1; construct: gene MAP3K5; details: concentration: 1 μM, replicates: in singlicate; n = 1
assay-readout: %Inh (%)
Hi! Could you send only the number? It should be in %, unit omitted.

Reference set, count: 2
[[record]]
smiles_input = "Cc1ccc(NC(=O)Nc2ccc(Cl)c(C(F)(F)F)c2)cc1-c1ccc(C(=O)Nc2ccncc2)cc1"
assay_readout = "%Inh"
numeric_value = 0

[[record]]
smiles_input = "Cc1c(Cn2c(C)c(C)n3c(=O)cc(N4CCOCC4)nc23)cccc1C(F)(F)F"
assay_readout = "%Inh"
numeric_value = 2


Moving on to the next compound.
Req: Reported %Inh for O=c1cc(N2CCOCC2)nc2n(Cc3ccccc3F)ccn12 : what is it?
Resp: 0

###

test system: PDGFRA
assay-readout: Kd

Req: Look at this molecule and give its reported Kd. Cn1cnc2c(N)ncnc21 [SKF-97623]
Resp: > 10 µM

###

test system: NEK11; settings: concentration: 1 μM, replicates: in singlicate; n = 1
assay-readout: %Inh (%)
// note: answer is a bare numeric in %

[[record]]
compound = "Nc1cccc(-c2ccc3c(N)n[nH]c3c2)n1"
numeric_value = 0

[[record]]
compound = "CSc1ccc(-c2nc3n(c2-c2ccncc2)CCC3)cc1"
numeric_value = 36


Req: Dear colleague, I am looking for the recorded %Inh of the following compound: CCc1ccc(-c2ccc3c(c2)-c2n[nH]cc2S(=O)(=O)N3C)cc1
Resp: 0

Req: Given O=C1NC(=O)C(c2ccc(Cl)cc2)=C1Nc1cccc(Cl)c1 , state its recorded %Inh.
Resp: 0

Req: %Inh for Cl.Cl.Cl.N#Cc1ccc(CCNc2nccc(-c3cccc(CN4CCNCC4)c3)n2)cc1 ?
Resp: 0

Req: For the compound shown here, Cc1ccccc1-c1cc(-c2c[nH]nc2-c2ccccn2)ccn1 , give the reported %Inh.
Resp: 11

Req: Using the record for Cc1cccc2c(-c3ccncn3)c(-c3ccc(F)cc3)nn12 , report its %Inh.
Resp: 0

Req: For the compound Cc1cnc(N)c(/C=C/c2cncc(C(=O)NCCc3ccc(Cl)cc3Cl)c2)c1.Cl , what %Inh is on record?
Resp: 0

Req: Need %Inh, item COc1ccc(Nc2nccc(N3CCC(NC(=O)C(C)c4ccc(Cl)cc4)C3)n2)cc1 (stereo not drawn)
Resp: 0

###

# maps each entry to its %Inh
system: MTOR; details: concentration: 1 μM, replicates: in singlicate; n = 1
Give a bare numeral; the unit % is implied.

The following molecules have reported results that may help.
[[record]]
molecule = "CNc1cc(-c2ccc3c(N)n[nH]c3c2)nc(N)n1"
assay_readout = "%Inh"
scale_unit = "%"
numeric_value = 0

[[record]]
molecule = "CSc1ccc(-c2nc3n(c2-c2ccncc2)CCC3)cc1"
assay_readout = "%Inh"
scale_unit = "%"
numeric_value = 0

[[record]]
molecule = "Fc1ccc(-c2nc[nH]c2-c2ccncc2)cc1"
assay_readout = "%Inh"
scale_unit = "%"
numeric_value = 4

[[record]]
molecule = "COc1ccc(CSc2nnc(-c3ccc4nccn4c3)o2)cc1C(F)(F)F"
assay_readout = "%Inh"
scale_unit = "%"
numeric_value = 0

[[record]]
molecule = "Cc1c(Cn2c3ccccc3n3c(=O)cc(N4CCOCC4)nc23)cccc1C(F)(F)F"
assay_readout = "%Inh"
scale_unit = "%"
numeric_value = 3


Req: Kindly state the measured %Inh obtained for COC(=O)c1cccc(NC(=O)NC2CCN(c3ccnc(Nc4ccc(OC)cc4)n3)C2)c1 (stereo not drawn) with MTOR.
Resp: 19

Req: Which %Inh is reported with MTOR for this entry: CS(=O)(=O)CCNCc1nc(-c2ccc3ncnc(Nc4ccc5c(cnn5Cc5ccccc5)c4)c3c2)cs1.Cl.Cl ?
Resp: 17

Req: # returns recorded %Inh (system: MTOR) for COc1ccc(Nc2nccc(-c3ccc(NC(=O)c4cc5cc(F)ccc5[nH]4)cc3)n2)cc1
Resp: 20

Req: What %Inh appears in the records for this molecule with MTOR? Cc1ccc(-c2nc(Nc3ccncc3)c3ccccc3n2)s1
Resp: 10

Req: GET /values?readout=%Inh&system=MTOR&item= Cn1cnc2c(N)ncnc21
Resp: 4

###

system: ERBB4; conditions: concentration: 1 μM, replicates: in singlicate; n = 1
assay-readout: %Inh (%)
Provide only the numeric value, understood in %.

Please review the following examples before continuing.
[[record]]
compound = "CCn1c(-c2c(N)noc2C)nc2cnccc21"
experimental_system = "ERBB4"
assay_readout = "%Inh"
numeric_value = 0

[[record]]
compound = "Cc1ccc(-c2nc(Nc3ccncc3)c3ccccc3n2)s1"
experimental_system = "ERBB4"
assay_readout = "%Inh"
numeric_value = 31

[[record]]
compound = "CNC(=O)c1ccc(C)c(-n2c(C)cc(OCc3ccc(F)cc3F)c(Br)c2=O)c1"
experimental_system = "ERBB4"
assay_readout = "%Inh"
numeric_value = 13


Req: GET /values?readout=%Inh&system=ERBB4&item= Nc1ncnc2occ(-c3ccc4c(c3)CCN4C(=O)Cc3cc(F)ccc3F)c12
Resp: 0

Req: Find the measured %Inh: item Cc1ccccc1Cn1ccn2c(=O)cc(N3CCOCC3)nc12 , target or system ERBB4.
Resp: 20

Req: Item: Nc1cccc(-c2ccc3c(N)n[nH]c3c2)n1 Test system: ERBB4 Read-out: %Inh Value: ?
Resp: 0

Req: What reported %Inh corresponds to O=c1cc(N2CCOCC2)nc2n(Cc3cccc(Cl)c3Cl)c3ccccc3n12 on ERBB4?
Resp: 10

Req: State its %Inh on ERBB4: Cc1ccccc1-c1cc(-c2c[nH]nc2-c2ccccn2)ccn1
Resp: 25

###

This listing pairs compounds with measured %Inh.
tested on: EPHA7; details: concentration: 1 μM, replicates: in singlicate; n = 1
Answer in %, number only, no unit symbol.

[[record]]
compound = "CC(C)c1cc(-c2ccc3c(N)n[nH]c3c2)nc(N)n1"
assay_readout = "%Inh"
numeric_value = 3


Req: # input compound: COc1ccc(Nc2nccc(-c3ccc(NC(=O)c4cc5cc(F)ccc5[nH]4)cc3)n2)cc1 ; wanted: its %Inh
Resp: 0

Req: Using the record for O=C(Nc1n[nH]c2nc(-c3cccs3)c(Br)cc12)C1CCCC1 , report its %Inh.
Resp: 8

###

system: HIPK3; settings: concentration: 1 μM, replicates: in singlicate; n = 1
assay-readout: %Inh (%)
Form entry: value (%) — number only.

Recorded results for 3 compounds are shown here.
[[record]]
compound = "O=C(Nc1n[nH]c2nc(-c3cccs3)c(Br)cc12)C1CCCC1 [SB-743341]"
numeric_value = 52

[[record]]
compound = "NS(=O)(=O)c1cccc(N/C=C2\\C(=O)Nc3ccc(S(=O)(=O)Cc4c(Cl)cccc4Cl)cc32)c1 [GSK398099]"
numeric_value = 12

[[record]]
compound = "O=C1NC(=O)C(c2ccc(Cl)cc2)=C1Nc1ccc(O)cc1 [SB-340867]"
numeric_value = 0


Lab note: next compound to report on.
Req: Look up %Inh for this compound: COc1ccc(CSc2nnc(-c3ccc4ncsc4c3)o2)cc1C(F)(F)F
Resp: 0

###

tested on: EPHB4; settings: concentration: 1 μM, replicates: in singlicate; n = 1
Tag: 1 if measured %Inh is not below 4%, 0 if it is.

See these solved cases before continuing.
[[record]]
molecule = "Cc1c(Cn2c(C)c(C)n3c(=O)cc(N4CCOCC4)nc23)cccc1C(F)(F)F [GSK2328680]"
experimental_system = "EPHB4"
label = 1

[[record]]
molecule = "COc1ccc(-c2coc3ccc(-c4nnc(C)o4)cc23)cc1"
experimental_system = "EPHB4"
label = 1

[[record]]
molecule = "CCn1c(-c2ccccc2)nc2cnccc21 [SB-733416]"
experimental_system = "EPHB4"
label = 1

[[record]]
molecule = "COc1ccc(CSc2nnc(-c3ccc4c(c3)CCO4)o2)cc1"
experimental_system = "EPHB4"
label = 1

[[record]]
molecule = "COc1cccc(C2=C(Nc3cc(Cl)c(O)c(Cl)c3)C(=O)NC2=O)c1 [SB-390767]"
experimental_system = "EPHB4"
label = 1


Query molecule follows.
Req: Decide: is the reported value of %Inh for CC(=O)c1c(C)c2cnc(Nc3ccn(C)n3)nc2n(C2CCCC2)c1=O equal to or greater than 4%?
Resp: 0

###

test system: MARK4; conditions: concentration: 1 μM, replicates: in singlicate; n = 1
assay-readout: %Inh (%)
Numeric only. Scale: %

Before answering, review these 3 worked examples.
[[record]]
compound = "O=C(Nc1n[nH]c2nc(-c3cccs3)c(Br)cc12)C1CCCC1"
numeric_value = 19

[[record]]
compound = "CCn1c(-c2c(N)noc2C)nc2cnccc21"
numeric_value = 0

[[record]]
compound = "COC(=O)C(Cc1ccccc1)NC(=O)NC1CCN(c2ccnc(Nc3ccc(F)cc3)n2)C1 (stereo not shown)"
numeric_value = 4


Req: Quick one: %Inh for CCc1ccc(-c2ccc3c(c2)-c2n[nH]cc2S(=O)(=O)N3C)cc1 ?
Resp: 0

Req: Which %Inh reading was recorded for the compound O=C1NC(=O)C(c2ccc(Cl)cc2)=C1Nc1cccc(Cl)c1 ?
Resp: 0

Taken from paper PMC5540273.
